Taken from PubChem BioAssay AID1069.

Listed compounds paired with reported side scatter shift
Assay: LNCaP granularity increase inducers, single-point recheck – cell-based, side scatter shift, flow cytometry, confirmation (AID 1069);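 also: LNCaP human prostate cancer cells in low-serum medium with charcoal-stripped FBS; percent of cells with raised granularity gated so DMSO controls show 10%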
Conditions: LNCaP differentiation, 4 d, at 100 µM, hits give high values
reported-endpoint: side scatter shift (%)

• Cc1cc(OCC(=O)O)c2c3c(c(=O)oc2c1)CCCC3 = 5.1
• O=C(COc1ccc2ccccc2c1)N1CCN(C2CCN(Cc3ccccc3)CC2)CC1 = 54.3
• Cc1ccc2c(c1)[C@@H]1CN(C)CC[C@@H]1N2C(=O)Nc1cccc(C(F)(F)F)c1 = 23.1
• Clc1ccc(COC(Cn2ccnc2)c2ccc(Cl)cc2Cl)cc1 (centres undefined) = 18.2
